Assay: Quantitative High-Throughput drug screen in 47 multiple myeloma cell lines against the NCATS MIPE library collection: MMM1_PLB cell viability assay (AID 1918976); also: nearly all actives have a fitted effect of over 35% in size
Settings: MMM1 myeloma cells viability, CellTiter-Glo, 48 h; series mostly up to 45.8 µM
Description: PI: Beverly A. Mock Ph.D. Laboratory of Cancer Biology and Genetics, Center for Cancer Research, National Cancer Institute, National Institute of Health, Bethesda, Maryland […] 5; Detector; 425V; Luminescence; Viewlux PerkinElmer. […] 1. […] Briefly, the corresponding myeloma cell lines were screened in 1,536-well plates with 500 cells, 5-uL per well for inhibition of cell viability (assessed by measuring ATP levels with CellTiterGlo). […]
Records with an inconclusive call do not appear. Calls of active or inactive are those of the source. Calls follow the shape of the dose curve; as a rule, active = well fitted cell-killing curve with a large enough effect; inconclusive = small, poorly fitted or top-dose-only effect, or effect the other way; inactive = no such curve, though single readings can be large or run the other way.
Returns: one label drawn from active, inactive

Compound	Category
CC(C)OC(=O)C(C)(C)Oc1ccc(C(=O)c2ccc(Cl)cc2)cc1	active

Problem: // outcome(item) with item = Cc1cnc(C(=O)O)c[n+]1[O-]
Solution: active

Problem: Answer briefly: the call reported for COc1cc2ncnc(-n3nc(-c4ccccn4)nc3N)c2cc1OC in this assay.
Solution: active

Problem: What did the test return for Cc1ccccc1C(C(=O)NC1CCCCC1)N(C(=O)Cn1ccnc1C)c1cccc(F)c1 (stereo not given) ?
Solution: active

Problem: Which outcome did this test record for the compound CC(C)OC(=O)CCCC=CC[C@@H]1[C@H](C=C[C@@H](O)COc2cccc(C(F)(F)F)c2)[C@H](O)C[C@@H]1O ?
Solution: active

Problem: Could you check what this test reported for CCCCCNC(=O)N1CCC(CN(Cc2ccc(Cl)cc2)Cc2ccc([N+](=O)[O-])s2)C1 (stereo not given) ?
Solution: active

Problem: Record lookup: outcome of this test for Clc1ccc(-c2nc3sccn3c2C=NOCc2ccc(Cl)c(Cl)c2)cc1 ?
Solution: active

Problem: Would you mind telling me which call this test gave O=c1c(-c2ccc(O)cc2)coc2cc(OC3O[C@H](CO)[C@H](O)[C@H](O)[C@H]3O)cc(O)c12 (stereo not given in full) ?
Solution: active
